target: T1, ubiquitin (Ub) (UniProt P0CG48 1-76); assay: ITC; Ub (1 mM stock) injected into USP13-ZnF, USP5-ZnF or its mutants (50 µM), 25 injections of 8 µL; 50 mM Tris, 150 mM NaCl, pH 7.5, 1 mM DTT; 25°C; settings: both partners purified
T1 construct: ubiquitin, free monomer; only a GST-fused Ub construct is named in the methods; also called free Ub; monoUb
Exercise: state measured pKd for each of the binders provided.
Lab note — pKd values are minus log10 of concentrations in M.

# input If you can, please state the reported pKd value of USP5-ZnF R222W/Y223F (domain or fragment, human, UniProt P45974 169-289, looked up, USP5, human, ZnF domain, residues 169-289, point mutant in pET-M; source: E. coli BL21, purified (Ni-NTA agarose, size-exclusion chromatography)) WDGEVRQVSKHAFSLKQLDNPARIPPCGWKCSKCDMRENLWLNLTDGSILCGRWFFDGSGGNNHAVEHYRETGYPLAVKLGTITPDGADVYSYDEDDMVLDPSLAEHLSHFGIDMLKMQKT .
# output 4.80

# input // same read-out, input: USP5-ZnF R221K (domain or fragment, human, UniProt P45974 169-289, looked up, USP5, human, ZnF domain, residues 169-289, point mutant in pET-M; source: E. coli BL21, purified (Ni-NTA agarose, size-exclusion chromatography)) WDGEVRQVSKHAFSLKQLDNPARIPPCGWKCSKCDMRENLWLNLTDGSILCGKRYFDGSGGNNHAVEHYRETGYPLAVKLGTITPDGADVYSYDEDDMVLDPSLAEHLSHFGIDMLKMQKT
# output 4.00

Entry source: paper PMC3247260
